The origin of these recorded values is patent US20250121087A1.

Molecular target: T1, human B7-H3 (Y-Biologics Inc.) (human, UniProt Q5ZPR3 29-466)
T1 chain: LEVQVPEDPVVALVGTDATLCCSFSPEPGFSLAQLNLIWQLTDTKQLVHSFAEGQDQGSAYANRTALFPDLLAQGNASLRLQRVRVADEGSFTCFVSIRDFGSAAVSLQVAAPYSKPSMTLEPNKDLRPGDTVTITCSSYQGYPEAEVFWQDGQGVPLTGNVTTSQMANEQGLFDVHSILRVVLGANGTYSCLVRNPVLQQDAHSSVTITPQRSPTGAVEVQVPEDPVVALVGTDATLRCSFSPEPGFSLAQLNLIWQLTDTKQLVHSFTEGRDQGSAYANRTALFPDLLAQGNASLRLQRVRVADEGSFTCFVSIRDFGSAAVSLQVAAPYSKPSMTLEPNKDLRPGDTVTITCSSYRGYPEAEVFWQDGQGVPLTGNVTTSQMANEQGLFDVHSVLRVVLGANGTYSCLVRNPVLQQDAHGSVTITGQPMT
Assay: BLI (Octet QKe), antibody on AHC biosensor, human B7-H3 as analyte, 1:1 global fit
Entries and their kon
Number in M⁻¹ s⁻¹, nothing else.

>>> number("AB8 (SA2579, CD276-039C05_LS_002H07) (antibody, human IgG1, V domains shown, Whole human IgG; also called CD276-39C05-LS-002H07) VH: QVQLVESGAEVKKPGSSVKVSCKASGGTFSSYAISWVRQAPGQGLEWMGRIIPILGIANYAQKFQGRVTITADKSTSTAYMELSSLRSEDTAVYYCANGGDSSSWYTFDYWGQGTLITVSS VL: DIQMTQSPSTLSASVGDRVTITCRASQSIDNWLAWYQQKPGKAPKLLIYKASSLQSGVPSRFSGSGSGTEFTLTISSLQPDDFASYYCQQYDSNPLTFGGGTKVEIK")
900000
>>> number("AB3 (SA2103, CD276-039C05) (antibody, human IgG1, V domains shown, Whole human IgG) VH: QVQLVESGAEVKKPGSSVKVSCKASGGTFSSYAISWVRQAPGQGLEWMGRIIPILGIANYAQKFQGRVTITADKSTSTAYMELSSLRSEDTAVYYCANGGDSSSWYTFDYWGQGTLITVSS VL: DIQMTQSPSTLSASVGDKLTLTCRASQSISRWLAWYQQKPGKAPKLLIYKASYLQTGVPSRFSGSGTGTEFTLTISSLQPDDFATYYCQQYNTFPLTFAGGTKVEIK")
600000

IN: Any idea what kon was measured for AB7 (SA2571, CD276-039C05_LS_002D03) (antibody, human IgG1, V domains shown, Whole human IgG; also called CD276-39C05_LS_002D03) VH: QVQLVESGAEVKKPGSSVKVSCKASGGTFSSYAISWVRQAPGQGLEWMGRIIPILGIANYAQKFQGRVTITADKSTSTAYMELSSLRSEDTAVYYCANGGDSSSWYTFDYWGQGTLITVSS VL: DIQMTQSPSTLSASVGDRVTITCRASETISSWLAWYQQKPGKAPKLLIYKASSLQSGVPSRFSGSGSGTEFTLTISSLQPDDFATYYCQQYYSYPITFGQGTRLEIK ?
OUT: 2e+06

IN: Any idea what kon was measured for AB4 (SA2545, CD276-039C05_LS_001E10) (antibody, human IgG1, V domains shown, Whole human IgG; also called CD276-39C05-LS-001E10) VH: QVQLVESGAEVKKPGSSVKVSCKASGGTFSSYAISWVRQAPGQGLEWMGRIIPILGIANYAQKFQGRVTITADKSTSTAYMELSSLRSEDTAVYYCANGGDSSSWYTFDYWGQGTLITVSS VL: DIQMTQSPSTLSASVGDRVNITCRASQTINSWLAWYQQKPGKAPKLLIYKASYLQTGVPSRFSGSGAGTEFTLTISSLQPDDFATYYCQQYNSYSLTFGGGTKVEIK ?
OUT: 1e+06

IN: Any idea what kon was measured for AB2.1 (SA2107.01, CD276-040F10_IgG1_A1C) (antibody, V domains shown, Tested unconjugated; also called SA2107 A121C) VH: QVQLVESGAEVKKPGASVKLSCKASGYTFSSYWMHWVRQAPGQRLEWMGEINPGNGHTNYNEKFKSRVTITVDKSASTAYMELSSLRSEDTAVYYCVADPRRPKVPTALFVYWGQGTLVTVSS VL: DIQMTQSPSSVSASVGDRVTISCRASQGIGTWLAWYQQKPGKAPRLLIYAASSLDSGVPSRFSASGSGTDFTLTISSLQPEDFATYYCQQAINFPITFGQGTRLEIKR ?
OUT: 500000
